Biological target: Tubulin
Test: Inhibition of tubulin polymerization
Measured metric: IC50 (µM)

• CCOc1ccc2[nH]cc(Sc3cc(OC)c(OC)c(OC)c3)c2c1 = 2.1
• COc1cc(Sc2c[nH]c3ccc(OCCO)cc23)cc(OC)c1OC = 6.8

[I] COc1ccc2[nH]c(C)c(Sc3cc(OC)c(OC)c(OC)c3)c2c1
[II] Cc1cc(C)cc(Sc2c[nH]c3ccc(Cl)cc23)c1
[III] COc1cc(Sc2c[nH]c3ccc(O)cc23)cc(OC)c1OC
[IV] COc1cc(Sc2c[nH]c3ccc(Br)cc23)cc(OC)c1OC
[V] COc1cc(Sc2c[nH]c3ccc([N+](=O)[O-])cc23)cc(OC)c1OC
Prompt line: Highest IC50 first, then in falling order down to the smallest. Please, when replying, give the labels in the order that was requested.
Response line: V, II, III, I, IV
(V: 16 µM, II: 9.4 µM, III: 6.3 µM, I: 3.3 µM, IV: 1.6 µM)

====

Molecular target: Tubulin
Assay: Inhibition of tubulin polymerization
Measured metric: IC50 (µM)

# count of solved cases: 3
* COc1cc(Sc2c[nH]c3ccc(Cl)cc23)cc(OC)c1OC | 2.6
* COc1cc(Sc2c[nH]c3ccc(I)cc23)cc(OC)c1OC | 2.7
* COc1ccccc1Sc1c[nH]c2ccc(Cl)cc12 | 11

[a] COc1cc(Sc2c[nH]c3ccc(OC(C)C)cc23)cc(OC)c1OC
[b] COc1cc(Sc2c[nH]c3ccc(N)cc23)cc(OC)c1OC
[c] COc1cc(Sc2c[nH]c3ccc(F)cc23)cc(OC)c1OC
[d] COc1cc(Sc2c(C)[nH]c3ccccc23)cc(OC)c1OC
Prompt line: Order the 4 compounds from highest to lowest IC50. Your answer should be the labels, listed in the requested order.
Response line: a, b, d, c
(a: 19 µM, b: 13 µM, d: 6.8 µM, c: 3.3 µM)

====

Target: Tubulin (Homo sapiens) (UniProt P68371+Q9H4B7+P0DPH7+P68366+Q13509+Q71U36+P04350+Q3ZCM7+P07437+P68363+Q9BQE3+Q6PEY2+Q13885+Q9BVA1+Q9BUF5)
Test: Inhibition of [3H]colchicine binding to tubulin at 5 uM
Type: protein-complex assay
Measured metric: inhibition (%)

• COc1cc(Sc2c[nH]c3ccccc23)cc(OC)c1OC = 68
• COc1cc(Sc2c[nH]c3ccc(C)cc23)cc(OC)c1OC = 56

[a] COc1cc(Sc2c[nH]c3ccc(Br)cc23)cc(OC)c1OC
[b] COc1cc(Sc2c[nH]c3ccc(OCCO)cc23)cc(OC)c1OC
Prompt line: Task for the reader: decide whether a or b has the larger inhibition. State the label of the item chosen.
Response line: a

[P] COc1cc(Sc2c[nH]c3ccc(Cl)cc23)cc(OC)c1OC
[Q] CCOc1ccc2[nH]cc(Sc3cc(OC)c(OC)c(OC)c3)c2c1
Prompt line: Of P and Q , whose reported inhibition is the larger number? Bench note: the answer is the label of the chosen record.
Response line: Q

====

Target: Tubulin
Assay: Inhibition of tubulin polymerization
Assay type: protein-complex assay, Homo sapiens
Measured metric: IC50 (nM)

Answered examples (2):
• COc1cc(Sc2c(C)[nH]c3ccc(Cl)cc23)cc(OC)c1OC = 2700
• COc1cc(Sc2c[nH]c3ccc(C)cc23)cc(OC)c1OC = 2700

[I] COc1cc(Sc2c[nH]c3ccccc23)cc(OC)c1OC
[II] COc1ccc2[nH]cc(Sc3cc(OC)c(OC)c(OC)c3)c2c1
Prompt line: Problem: Given the entries I and II , determine which has the lower reported IC50. # respond with the chosen item's label
Response line: I
